measurement notes: Toxicity liver stage against HepG2, at 10uM
Assay type: cell-based
Parameters: test concentration 10 uM, cell line HepG2-A16-CD81EGFP
condition context: human, HepG2-A16-CD81EGFP cells; read-out: INHIBITION
Quick reference for cytotoxicity at 10 µM among some molecules
assay metric: cytotoxicity at 10 µM (%)

- CC(=O)N1CCN(C(=O)NCc2ccccc2Cn2cncn2)CC1: 0.0453
- CCOCCC(=O)NCC1COc2c(cccc2OC)C1 (configuration not stated): -142
- CCS(=O)(=O)N1Cc2ccccc2CC1C(=O)OCc1c(C)noc1C (configuration not stated): -9.26
- Cc1nn(C)c(C)c1S(=O)(=O)NCC(C)(O)c1ccc2c(c1)OCO2 (configuration not stated): 1.77
- CCN1CCOCC2(CCCN(C(=O)c3cccc(O)c3)C2)C1 (configuration not stated): 0.14
- CCOc1ccnc(N2CCN(C(=O)c3cccnc3O)CC2)n1: -6.51
- CCc1nc(C)c(C2CC(=O)Nc3c2c(-c2cccnc2)nn3C)[nH]1 (configuration not stated): -8.13
- O=C1CC(C(=O)Nc2nnc(-c3ccccn3)[nH]2)c2ccccc2N1 (configuration not stated): 7.92
- CC(C(=O)N1CCN(Cc2ccc3c(c2)OCO3)CC1)n1ccnc1 (configuration not stated): -9.57
- CCSC1(CNc2ncc(Br)cn2)CCOCC1: -2.72
- O=C(NCC1(CO)CC1)c1nnn(-c2ccc(F)cc2)c1C1CC1: -1.06
- O=C(Nc1cnccn1)[C@@H]1COC[C@H]2CN(C3CCCC3)C[C@H]21: -21.9
- O=C(c1ccon1)N1CCc2ncnc(NCc3cccnc3)c2CC1: -1.9
- CCn1cc(CNCC(c2ccc(C)s2)N2CCOCC2)cn1 (configuration not stated): -8.65
- CC(NC(=O)CN(C)S(C)(=O)=O)c1ccc(F)cc1 (configuration not stated): -4.36
- CN1C[C@@H](n2cnc(-c3ccccc3)c2-c2ncc[nH]2)C[C@H]1C(=O)O: -4.75
- COCCN1Cc2ccnn2CC(COCc2cccnc2)C1 (configuration not stated): -131
- COc1cccc(CCCNC(=O)N2CCC(O)(C(F)(F)F)C2)c1 (configuration not stated): -4.25
- CSC(C)C(=O)N(C)C1CCN(c2ccc(Cl)cc2)CC1 (configuration not stated): 0.204
- CN(C)C(=O)[C@H]1CCS(=O)(=O)[C@@H]2CN(c3ncc(F)cn3)C[C@H]12: -100
- Cc1cccc(CN2CCS(=O)(=O)[C@@H]3CCN(S(C)(=O)=O)CC[C@@H]32)n1: -3.34
- O=C(CCCc1ccccn1)N1CCC(Nc2cccnn2)CC1: -9.73
- COc1cnc(C2(O)CCN(C(=O)c3cccnc3)CC2)c(OC)n1: 0.41
- Cc1ccc(C)c(-n2ccc3nc(N4CCCC4)ncc3c2=O)c1: 18.6
- CS(=O)(=O)N1CCCCCC1C1CCN(Cc2nc(C3CC3)no2)CC1 (configuration not stated): -4.09
- Fc1cnccc1CN1CCC2(CCN2c2ncccn2)C1 (configuration not stated): -111
- Cc1ccc(CC(=O)N2CCc3nnc(N(C)C)cc3C2)s1: -9.01
- CC(C)NC(=O)[C@H]1C[C@H]2NCCO[C@@H]2C1: -134
- O=C(NCC(O)c1ccoc1)Nc1cccs1 (configuration not stated): -11.1
- CCn1nccc1CN(C)c1[nH]cnc2nc(C)nc1-2: -7.97
- COCC(=O)NCCC(=O)N1CCN(S(=O)(=O)c2cccc(Br)c2)CC1: -40.4
- CCC(O)CN1CCN(C(=O)c2cccn2Cc2cccs2)CC1 (configuration not stated): -5.74
- O=C1NCCN(CC2CC2)C12CCN(Cc1ccc3c(c1)OCO3)CC2: -1.06
- O=C(c1cc(-n2cccn2)ccn1)N(CC1CCC1)CC(F)(F)F: 6.4
- O=C(c1ccccc1C1CCNC1)N1CCC(N2CCC(O)CC2)CC1 (configuration not stated): -8.3
- O=C(COc1ccc(F)cc1F)N1CCOCC(O)(CN2CCCC2)C1 (configuration not stated): 0.678
- COCC(=O)N1CCO[C@]2(CCC[C@H]2COC)C1: -97.5
- NC(=O)C1(c2cnccn2)CCCN1Cc1ccncc1 (configuration not stated): -0.446
- O=C(NC[C@]1(O)CCN(Cc2ccccc2F)C[C@H]1O)c1c[nH]cn1: 4.41
- Cc1ccc(-c2ccnc(N(C)CC3CCCN3C)n2)c(C)n1 (configuration not stated): -9.66
- O=C(c1ccco1)N1CCC2(CC1)CCN(c1ncccn1)CC2: 4.59
- CC(=O)N1CCCCC1c1nc2c(c(N3CCCCC3)n1)CN(C)CC2 (configuration not stated): -0.0788
- CCCSCC(=O)N1CCN(c2ccc(OC)cc2)CC1C (configuration not stated): -166
- CC(C)n1ncc2cc(NC(=O)N3CCSCC3)cnc21: -5.07
- CC1CCN(S(=O)(=O)c2cccnc2)c2ccccc2S1 (configuration not stated): 5
- CN(C)CCCNCCC(Cc1ccccc1)C1CCOC(C)(C)C1 (configuration not stated): -4.08
- Cc1ccc(Oc2ncccc2CNC2CCSCC2)cn1: -8.22
